Target: T1, human BCMA with a His tag (ACROBiosystems, Catalog No.: BCA-H522y) (human)
T1 construct: Bought His-tagged recombinant protein; also called huBCMA-His; Recombinant human BCMA
T1 chain: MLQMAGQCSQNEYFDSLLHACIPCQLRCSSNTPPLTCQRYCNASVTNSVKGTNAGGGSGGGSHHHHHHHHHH
Assay: SPR, Biacore T200
Result type: koff (s⁻¹)
Give just the numeric value; s⁻¹ need not be written.

Consider the worked cases shown below.
1) SCT-Aa14(m/m) (antibody, V domains shown, Full IgG format: mouse IgG1 heavy chain constant region, mouse kappa light chain constant region) VH: QVQLQQSDAELVKPGASVKISCKVSSYTFTDHTIHWMKQRPEQGLEWIGYIFPRDGSTKYNEKFKGKATLTADKSSSTAYMQLNSLTSEDSAVYFCARWDYEGFDYWGQGTTLTVSS VL: DIVMTQSPATLSVTPGDRVSLSCRASQNISDYLHWYQQKSHESPRLLIKYASQSISGIPSRFSGSGSGSDFTLSINSVEPEDVGVYYCQNGHSFPPTFGSGTKLEIK; 0.0376
2) SCT-Aa11(m/m) (antibody, V domains shown, Full IgG format: mouse IgG1 heavy chain constant region, mouse kappa light chain constant region) VH: QVQLQQSDAELVKPGASVKISCKVSGYTFTDHTIHWMKQRPEQGLEWIGYIFPRDGTTKFNEMFKGKATLTADKSSSTAYMELNSLTSEDSAVYFCARWDYEGFDYWGQGTTLTVSS VL: DIVMTQSPATLSVTPGDRVSLSCRASQSISDYLHWYQQKSHESPRLLIKYASQFISGIPSRFRGSGSGSDFTLSINSVEPEDVGVYYCQNGHSFPPTFGSGTKLEIK; 0.0945

--- query ---
Ask: Which measured koff value corresponds to SCT-Aa09(m/m) (antibody, V domains shown, Full IgG format: mouse IgG1 heavy chain constant region, mouse kappa light chain constant region) VH: QVQLQQSDAELVKPGASVKISCKVSGYTFTDHTIHWMKQRPEQGLEWIGYFYPRDDNTKYNEKFKGKATLTADRSSSTAYMQLNSLTSEDSAVYFCARWDYEGFDYWGQGTTLTVSS VL: DIVMTQSPATLSVTPGDRVSLSCRASQSIRDYLHWYQQKSHESPRLLIKYASQSISGIPSRFSGSGSGSDFTLSINSVEPEDVGVYYCQNGHSFPPTFGSGTKLEIK ?
Result: 0.127

Values compiled from patent US20210332145A1.
